test.summary: Pharmacokinetic analysis of plasma (Cmax, AUC0-24h) at steady state
Type: in vivo, human
details: human, in vivo, po; 500 mg q24 p.o., steady state, plasma

{"sample.smiles": "COc1c(N2C[C@@H](C)C[C@H](N)C2)ccc2c(=O)c(C(=O)O)cn(C3CC3)c12", "Cmax [ng/mL]": 5560}

* * *

test.summary: Pharmacokinetic analysis of plasma (Cmax, AUC0-24h) at steady state
Format: in vivo, human
details: human, po; 1000 mg q24 p.o., steady state, plasma

{"sample.smiles": "COc1c(N2C[C@@H](C)C[C@H](N)C2)ccc2c(=O)c(C(=O)O)cn(C3CC3)c12", "AUC(0-t)": "74800 ng·h/mL"}
